// provenance: the NTF2 design screens of Basanta et al. (2020)

# reported protease stability score; entries follow
assay: protease stability score; higher = more stable; yeast display proteolysis, trypsin and chymotrypsin;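 also: log10 excess protease needed over predicted unfolded state with 0 meaning unfolded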

>  <sequence data>
DEEDLHRNMKQMLKDFNTGDPDKIQEQIDPNAKVQVGDTTFHGREEAHRMARDFRHQVDHIQLKEVKVRGNEFEASVVVKYDGKERRFVMQANVHNGKVKKLWFEDK

>  <protease stability score>
0.063

$$$$
>  <sequence data>
DESKKAKKFMEEYKRAIETGDEDTAKNLADKDARVKVGDTTYTGMDHIRERVVTEAKQVDHITFEVKEMQTRPGRLKVRMDVIFDHDGRKDRKEVVLVFKDNNGKVLLLSASYQ

>  <protease stability score>
-0.041

$$$$
>  <sequence data>
DENENEEFARKFLENLRTGDPDKVMELVDPNAHVTIGDKEIKGRDQVKRWVEEHKRRADHLDVRDMSVDGEKITARIVVNINGENKYQKVEISIHNGHMTHMSVHDE

>  <protease stability score>
1.12

$$$$
>  <sequence data>
DEESVQTFAQQRRQGNFEELIKMMDPNVEMKVGDKTWTGREQVQTALEHLKERVDRIQIDHMDVKGNHVDIDYVLNFNGRNVKATQKIEMKNGSAKRIQIDATNEENEKELKKAFS

>  <protease stability score>
-0.163

$$$$
>  <sequence data>
DERKRAKKALDDLKHAMHSNDPDKQKELMDENVELKYGDRHVNGREQANQHAEEHFERADHLDQKIQTWDIHNGKVSVTFTMTIEFNGRRENIQVQVTFDTVDGRLRIRTAREK

>  <protease stability score>
0.525

$$$$
>  <sequence data>
DEHAARVFLELLKAAETGDEKRLKRLADPNARIQVGDKHVDGMDEATKKIVKTWEKSRIRFEIKSYDVDGEKVRVNMQMTNRDNGEPDSKNAHFTVEVRNGHIKHADLQHHG

>  <protease stability score>
-0.223

$$$$
